Reported Kd by item:
Assay Target: T1, Recombinant human CD123 SP2 ECD protein (human, UniProt P26951 101-303)
T1 construct: also called rhCD123 SP2; CD123 ECD SP2
T1 sequence: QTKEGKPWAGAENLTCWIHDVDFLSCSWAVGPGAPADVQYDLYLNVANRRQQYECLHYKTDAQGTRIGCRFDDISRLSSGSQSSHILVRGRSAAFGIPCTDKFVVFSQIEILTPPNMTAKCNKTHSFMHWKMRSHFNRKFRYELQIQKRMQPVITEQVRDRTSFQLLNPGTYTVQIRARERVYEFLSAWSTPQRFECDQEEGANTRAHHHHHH
Test Protocol: SPR ProteOn, captured mAb
Procedure: The biosensor surface was prepared by covalently coupling Goat anti-Human IgG (Fc) to the surface of a GLC chip (BioRad) using the manufacturer instructions for amine-coupling chemistry. […] The RU immobilized also included a goat anti-mouse Fc antibody that was added to capture other antibodies not included in the ones reported here. Since the mixture was 1:1 about 50% of these RU immobilized are expected to be goat anti-human Fc. […]
Measured Property: Kd

Binder	Assay Value
I3RB19 (antibody, IgG1, V domains shown, IgG1; also called 13RB19) VH: EVQLLESGGGLVQPGGSLRLSCAASGFTFSNYAMSWVRQAPGKGLEWVSGIRGNGSSTYYADSVKGRFTISRDNSKNTLYLQMNSLRAEDTAVYYCAKGGPIGARFPDYLDYWGQGTLVTVSS VL: DIQMTQSPSSLSASVGDRVTITCRASQSIGDFLNWYQQKPGKAPKLLIYYASSLQSGVPSRFSGSGSGTDFTLTISSLQPEDFATYYCQQSYSTPLTFGQGTKVEIK	48.3 nM
I3RB2 (antibody, IgG1, V domains shown, IgG1; also called I3RB02; 13RB2) VH: EVQLLESGGGLVQPGGSLRLSCAASGFTFSGYWMHWVRQAPGKGLEWVSAIRSDGSSKYYADSVKGRFTISRDNSKNTLYLQMNSLRAEDTAVYYCAKDGVIEDTFDYWGQGTLVTVSS VL: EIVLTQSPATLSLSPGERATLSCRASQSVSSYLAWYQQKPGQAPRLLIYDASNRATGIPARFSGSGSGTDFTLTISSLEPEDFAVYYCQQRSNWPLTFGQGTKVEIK	1.85 nM
I3RB30 (antibody, IgG1, V domains shown, IgG1; also called 13RB30) VH: QVQLVQSGAEVKKPGSSVKVSCKASGGTFSSYAISWVRQAPGQGLEWMGWIIPIFGTANYAQKFQGRVTITADESTSTAYMELSSLRSEDTAVYYCARLVYSSDFDYWGQGTLVTVSS VL: EIVLTQSPATLSLSPGERATLSCRASQSVANWLAWYQQKPGQAPRLLIYYASNRATGIPARFSGSGSGTDFTLTISSLEPEDFAVYYCQQYDGWPRTFGQGTKVEIK	330 nM
I3RB18 (antibody, IgG1, V domains shown, IgG1; also called 13RB18; mAb I3RB18) VH: EVQLVQSGAEVKKPGESLKISCKGSGYSFTSYWISWVRQMPGKGLEWMGIIDPSDSDTRYSPSFQGQVTISADKSISTAYLQWSSLKASDTAMYYCARGDGSTDLDYWGQGTLVTVSS VL: EIVLTQSPGTLSLSPGERATLSCRASQSVSSSYLAWYQQKPGQAPRLLIYGASSRATGIPDRFSGSGSGTDFTLTISRLEPEDFAVYYCQQDYGFPWTFGQGTKVEIK	0.363 nM
